Molecular target: human RXFP3 (hRXFP3) (Homo sapiens, UniProt Q9NSD7)
Sequence (Q9NSD7 whole entry): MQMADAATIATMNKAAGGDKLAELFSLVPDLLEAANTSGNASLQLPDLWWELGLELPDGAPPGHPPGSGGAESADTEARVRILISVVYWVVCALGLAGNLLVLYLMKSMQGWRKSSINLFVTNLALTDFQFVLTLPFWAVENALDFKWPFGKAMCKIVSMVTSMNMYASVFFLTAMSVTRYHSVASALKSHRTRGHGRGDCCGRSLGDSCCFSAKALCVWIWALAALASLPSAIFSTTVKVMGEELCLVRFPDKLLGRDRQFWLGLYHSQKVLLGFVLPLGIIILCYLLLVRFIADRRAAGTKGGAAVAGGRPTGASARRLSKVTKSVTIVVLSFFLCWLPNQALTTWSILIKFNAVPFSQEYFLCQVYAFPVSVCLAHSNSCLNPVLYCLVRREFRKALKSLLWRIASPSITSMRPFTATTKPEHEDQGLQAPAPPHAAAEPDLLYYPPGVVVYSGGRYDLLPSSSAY
Experiment: cell-based
Design: HTS inhibition of forskolin-stimulated cAMP, TR-FRET; % activation relative to R3/I5
Details: hRXFP3-CHO; primary screen, single dose; read-out: % activation
observable: activity at 10 µM (%)

Below, each entry is followed by its recorded activity at 10 µM result.
{"compound": "Nc1ccc2sc3[nH]c(=O)c(=O)[nH]c3c2c1", "target_under_test": "human RXFP3 (hRXFP3) (Homo sapiens, UniProt Q9NSD7)", "observable": "activity at 10 µM", "test_result": 54}
{"compound": "O=C(CCCCN1CCCCC1)c1ccccc1", "target_under_test": "human RXFP3 (hRXFP3) (Homo sapiens, UniProt Q9NSD7)", "observable": "activity at 10 µM", "test_result": 56}
{"compound": "CSc1nccc(-c2ccc(Br)s2)n1", "target_under_test": "human RXFP3 (hRXFP3) (Homo sapiens, UniProt Q9NSD7)", "observable": "activity at 10 µM", "test_result": 78}
{"compound": "O=c1[nH]c2scc(C3CCCCC3)c2[nH]c1=O", "target_under_test": "human RXFP3 (hRXFP3) (Homo sapiens, UniProt Q9NSD7)", "observable": "activity at 10 µM", "test_result": 51}
{"compound": "CN(C)c1ccc2nc3ccc(=[N+](C)C)cc-3sc2c1", "target_under_test": "human RXFP3 (hRXFP3) (Homo sapiens, UniProt Q9NSD7)", "observable": "activity at 10 µM", "test_result": 51}

a: O=C(c1ccccc1O)N1CCc2nc3ncccc3cc2C1
b: O=C(O)C1CCN(CCC=C2c3ccccc3CCc3cc(-c4ccccc4)ccc32)CC1
Ask: Lower value for measured activity at 10 µM? Options: a , b Kindly give the label for the entry you pick.
Result: a

* * *

Biological target: human RXFP3 (hRXFP3) (Homo sapiens)
Assay: cAMP accumulation TR-FRET in hRXFP3-CHO cells
observable: EC50 (µM)
The reply should be a number in µM, with the unit left off.

Ask: Which measured EC50 value corresponds to CC(C)(CCc1ccc(NS(=O)(=O)c2ccccc2)cc1)NCC(O)COc1ccc(O)c(NS(C)(=O)=O)c1 (racemic) ?
Result: 2.51

* * *

Molecular target: human RXFP3 (hRXFP3) (Homo sapiens, UniProt Q9NSD7)
Experiment: cell-based
Set-up: HTS inhibition of forskolin-stimulated cAMP, TR-FRET; % activation relative to R3/I5
Conditions: hRXFP3-CHO; primary screen, single dose; read-out: % activation
observable: activity at 10 µM (%)

Here's what some known entries look like.
{"compound": "O=C(O)C1CCCN(CCC=C2c3ccccc3CCc3cc(-c4ccccc4)ccc32)C1 (centres unmarked) [WNN0063-E008]", "u": "%", "activity at 10 µM": 68}
{"compound": "Cc1csc2[nH]c(=O)c(=O)n(C)c12 [WNN0004-D007]", "u": "%", "activity at 10 µM": 57}
{"compound": "CS/C(=N/C#N)Nc1ccc2c(c1)OCCO2 [WNN0027-G008]", "u": "%", "activity at 10 µM": 56}

I: C[N+](C)=c1ccc2nc3ccc(N)cc3sc-2c1 [WNN0314-F004]
II: O=c1[nH]c2ccccc2n(C(c2ccccc2)c2ccccc2)c1=O [WNN0119-H005]
Ask: Parameter metric = activity at 10 µM. Return the lower-valued option from I and II . Output the label that corresponds to your choice.
Result: I
